Test system: A673 cells
Measurement Protocol: Inhibition of proliferation of A673 cells (CyQUANT, 72 hour)
Assay type: cell-based, human
Measurement Context: A673 cells, 72 hour, CyQUANT; listed as 107; read-out: Inhibition of Proliferation of A673 Cells (calculated IC50)
Measurement Kind: IC50

# IC50 of N#C[C@@H]1CCN(C(=O)c2ccc3c(-c4nc(N[C@H]5CCCNC5)ncc4C(F)(F)F)c[nH]c3c2)C1 [Compound 292] = < 20 nM

----------
Target System: CDK12 (aa686-1082)/Cyclin K complex (Homo sapiens, UniProt Q9NYV4)
Construct: CDK12 (aa686-1082)/Cyclin K complex
Sequence (Q9NYV4 686-1082, species assumed): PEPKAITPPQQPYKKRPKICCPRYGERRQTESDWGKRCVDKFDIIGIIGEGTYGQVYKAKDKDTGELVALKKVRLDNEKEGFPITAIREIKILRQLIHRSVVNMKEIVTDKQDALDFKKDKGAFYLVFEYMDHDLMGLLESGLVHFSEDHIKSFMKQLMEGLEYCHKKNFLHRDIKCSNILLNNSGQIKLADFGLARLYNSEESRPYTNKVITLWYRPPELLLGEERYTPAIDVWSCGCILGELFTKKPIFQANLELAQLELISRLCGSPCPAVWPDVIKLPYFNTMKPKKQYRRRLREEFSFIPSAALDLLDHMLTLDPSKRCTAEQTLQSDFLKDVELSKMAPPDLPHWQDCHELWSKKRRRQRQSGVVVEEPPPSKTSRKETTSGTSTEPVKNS
Sequence (O75909 whole entry partner, species assumed, the tested form may be a part): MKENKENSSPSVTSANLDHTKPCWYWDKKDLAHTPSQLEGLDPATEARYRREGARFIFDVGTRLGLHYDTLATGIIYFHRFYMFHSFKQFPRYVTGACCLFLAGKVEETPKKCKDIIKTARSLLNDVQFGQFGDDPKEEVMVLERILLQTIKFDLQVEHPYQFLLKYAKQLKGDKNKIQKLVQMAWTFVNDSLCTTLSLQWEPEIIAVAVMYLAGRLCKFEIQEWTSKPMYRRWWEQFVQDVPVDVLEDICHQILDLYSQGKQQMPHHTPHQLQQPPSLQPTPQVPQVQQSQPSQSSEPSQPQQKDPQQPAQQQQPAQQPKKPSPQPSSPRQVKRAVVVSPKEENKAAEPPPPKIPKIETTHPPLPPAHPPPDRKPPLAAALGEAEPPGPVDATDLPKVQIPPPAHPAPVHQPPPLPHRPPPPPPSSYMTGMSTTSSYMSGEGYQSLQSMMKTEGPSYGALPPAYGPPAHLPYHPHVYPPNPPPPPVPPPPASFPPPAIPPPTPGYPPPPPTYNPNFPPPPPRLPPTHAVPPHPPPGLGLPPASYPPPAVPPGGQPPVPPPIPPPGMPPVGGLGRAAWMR
Measurement Protocol: CDK12 inhibition assay (Caliper/LabChip EZ Reader kinase assay)
Format: biochemical
Measurement Context: Table 1; CDK12 (aa686-1082)/Cyclin K 50 nM, ATP 2 mM, 3 hr at 27° C.; listed as 113
Measurement Kind: IC50

Field IC50 (system: CDK12 (aa686-1082)/Cyclin K complex (Homo sapiens, UniProt Q9NYV4)) for entry Cn1ccc(-c2ccc3c(-c4nc(N[C@H]5CCCNC5)ncc4C(F)(F)F)c[nH]c3c2)n1 [Compound 303] = 0.2 to 5 µM

----------
Target System: CDK9/Cyclin T1 complex (Homo sapiens)
Sequence (P50750 whole entry, species assumed): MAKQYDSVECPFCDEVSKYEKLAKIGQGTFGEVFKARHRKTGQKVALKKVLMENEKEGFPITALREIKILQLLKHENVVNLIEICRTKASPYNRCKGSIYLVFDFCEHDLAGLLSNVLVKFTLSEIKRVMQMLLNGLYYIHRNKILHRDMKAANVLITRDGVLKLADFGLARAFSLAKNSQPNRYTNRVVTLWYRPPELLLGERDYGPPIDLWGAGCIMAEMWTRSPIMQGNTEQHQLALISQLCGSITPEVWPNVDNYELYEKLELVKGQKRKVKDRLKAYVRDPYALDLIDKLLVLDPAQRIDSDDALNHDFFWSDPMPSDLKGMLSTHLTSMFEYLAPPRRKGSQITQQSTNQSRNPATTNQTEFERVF
Sequence (O60563 whole entry partner, species assumed): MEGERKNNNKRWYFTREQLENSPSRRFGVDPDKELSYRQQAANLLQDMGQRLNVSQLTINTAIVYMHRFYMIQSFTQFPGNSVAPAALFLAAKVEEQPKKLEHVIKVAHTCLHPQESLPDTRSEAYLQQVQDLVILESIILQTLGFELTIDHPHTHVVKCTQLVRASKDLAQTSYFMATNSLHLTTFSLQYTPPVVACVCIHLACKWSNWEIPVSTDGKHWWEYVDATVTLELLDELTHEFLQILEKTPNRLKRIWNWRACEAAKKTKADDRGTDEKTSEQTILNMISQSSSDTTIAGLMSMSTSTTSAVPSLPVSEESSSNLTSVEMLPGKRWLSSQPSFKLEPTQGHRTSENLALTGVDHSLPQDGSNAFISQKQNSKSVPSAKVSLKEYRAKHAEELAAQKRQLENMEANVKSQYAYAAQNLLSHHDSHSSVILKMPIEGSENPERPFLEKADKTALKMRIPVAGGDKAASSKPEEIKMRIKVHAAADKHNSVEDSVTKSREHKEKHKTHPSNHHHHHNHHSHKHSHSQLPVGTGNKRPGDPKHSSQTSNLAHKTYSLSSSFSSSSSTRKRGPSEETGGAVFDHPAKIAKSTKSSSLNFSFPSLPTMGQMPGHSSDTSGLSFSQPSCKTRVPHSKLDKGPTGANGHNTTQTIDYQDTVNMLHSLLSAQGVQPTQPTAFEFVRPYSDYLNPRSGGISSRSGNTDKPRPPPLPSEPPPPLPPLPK
Measurement Protocol: CDK9 inhibition assay (Caliper/LabChip EZ Reader kinase assay)
Format: biochemical
Measurement Context: Table 1; CDK9/Cyclin T1 8 nM, ATP 2 mM, 15 min at 27° C.
pIC50: −log10 of the molar value.
Entries annotated with measured pIC50

Example entries and their recorded answers appear below.
{"columns": ["Compound", "Measurement Kind", "Endpoint Value"],
 "data": [
  ["CO[C@H]1CCN(C(=O)c2ccc3c(-c4nc(N[C@H]5CCCNC5)ncc4C(F)(F)F)c[nH]c3c2)C1 [Compound 280]", "pIC50", "< 5.30"],
  ["CP(C)(=O)c1cccc2c(-c3nc(N[C@H]4CCCNC4)ncc3C(F)(F)F)c[nH]c12 [Compound 352]", "pIC50", "< 5.30"],
  ["CS(=O)(=O)c1c(C#N)ccc2c(-c3nc(N[C@H]4CCCNC4)ncc3C(F)(F)F)c[nH]c12 [Compound 232]", "pIC50", "5.30 to 6.70"],
  ["FC(F)(F)c1cnc(N[C@@H]2CNC[C@H](c3nnc4ccccn34)C2)nc1-c1c[nH]c2ccccc12 (relative stereo) [Compound 266]", "pIC50", "5.30 to 6.70"],
  ["CS(=O)(=O)c1ccc2c(-c3nc(N[C@H]4CCCN(C5CC5)C4)ncc3C(F)(F)F)c[nH]c2c1 [Compound 381]", "pIC50", "< 5.30"]
]}

# pIC50 of COCCN1CCC[C@H](Nc2ncc(Cl)c(-c3c[nH]c4ccccc34)n2)C1 [Compound 149] = 5.30 to 6.70

# pIC50 of COc1cnc(N[C@H]2CCCNC2)nc1-c1c[nH]c2ccccc12 [Compound 189] = < 5.30

# pIC50 of CC1(C)CC[C@H](Nc2ncc(C(F)(F)F)c(-c3c[nH]c4cc(C#N)ccc34)n2)CN1 [Compound 350] = < 5.30

# pIC50 of COCn1cc(-c2nc(N[C@H]3CCCNC3)ncc2C(F)(F)F)c2cccc(C#N)c21 [Compound 295] = < 5.30

# pIC50 of FC(F)(F)c1cnc(N[C@H]2CCCNC2)nc1-c1c[nH]c2cc(-c3ccnc4ccccc34)ccc12 [Compound 339] = < 5.30

# pIC50 of CN(C)S(=O)(=O)c1cccc2c(-c3nc(NC4CCCNC4)ncc3C(F)(F)F)c[nH]c12 (stereo not drawn) [Compound 371] = 5.30 to 6.70

# pIC50 of CCOP(=O)(OCC)c1cccc2c(-c3nc(N[C@H]4CCCNC4)ncc3C(F)(F)F)c[nH]c12 [Compound 168] = < 5.30

# pIC50 of CS(=O)(=O)c1ccc2c(-c3nc(N[C@H]4CCCNC4)ncc3C(F)(F)F)c[nH]c2c1 [Compound 199] = 5.30 to 6.70

# pIC50 of CC(C)C1CC[C@H](Nc2ncc(C(F)(F)F)c(-c3c[nH]c4ccccc34)n2)CN1 (mixture of isomers) [Compound 257] = < 5.30

# pIC50 of CNC(=O)C1CNCC(Nc2ncc(C(F)(F)F)c(-c3c[nH]c4ccccc34)n2)C1 (single isomer, unassigned) [Compound 252] = < 5.30

This collection of values is drawn from patent US20240360165A1.
